- SYSTEM: Beta-2 adrenergic receptor (Homo sapiens, UniProt P07550)
- Sequence (P07550 whole entry): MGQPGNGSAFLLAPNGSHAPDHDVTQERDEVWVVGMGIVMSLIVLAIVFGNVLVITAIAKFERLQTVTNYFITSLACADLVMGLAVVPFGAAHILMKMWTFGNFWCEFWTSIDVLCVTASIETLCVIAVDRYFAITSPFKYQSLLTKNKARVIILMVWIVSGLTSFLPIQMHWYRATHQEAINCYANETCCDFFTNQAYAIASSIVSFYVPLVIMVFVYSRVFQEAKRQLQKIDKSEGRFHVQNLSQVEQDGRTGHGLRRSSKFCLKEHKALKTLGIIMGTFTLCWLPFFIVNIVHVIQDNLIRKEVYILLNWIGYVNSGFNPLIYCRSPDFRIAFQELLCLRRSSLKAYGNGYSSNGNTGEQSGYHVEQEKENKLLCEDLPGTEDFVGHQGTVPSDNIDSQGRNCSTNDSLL
- RUN DESCRIPTION: ADRB2 activation measured by internalization – cell-based, FAP fluorogen, flow cytometry, cherry pick 1, dose response (AID 588763)
- Assay type: functional
The source made the active and inactive calls.
Entry note: the call must match one of YES (active), NO (inactive)

Solved cases below.
COMPOUND	LABEL CLASS
O=C(c1ccc(OC2CCN(Cc3ccc(C(F)(F)F)cc3)CC2)cc1)N1CCCCC1	YES
CC(C)Cc1nc2oc3c(Cl)ncnc3c2c2c1CCC2	NO
O=C(Nc1cccc(-c2nc3ncccc3o2)c1)c1sc2cc(Cl)ccc2c1Cl	NO

Now consider a different compound.
**Query** Called result for CC(C)=CCC(C)(C)C1OCCN1C(=O)c1ccccc1 (centres undefined)
**Result** YES

###

- SYSTEM: DNA repair and recombination protein RAD54-like (Homo sapiens, UniProt Q92698)
- Sequence (Q92698 whole entry): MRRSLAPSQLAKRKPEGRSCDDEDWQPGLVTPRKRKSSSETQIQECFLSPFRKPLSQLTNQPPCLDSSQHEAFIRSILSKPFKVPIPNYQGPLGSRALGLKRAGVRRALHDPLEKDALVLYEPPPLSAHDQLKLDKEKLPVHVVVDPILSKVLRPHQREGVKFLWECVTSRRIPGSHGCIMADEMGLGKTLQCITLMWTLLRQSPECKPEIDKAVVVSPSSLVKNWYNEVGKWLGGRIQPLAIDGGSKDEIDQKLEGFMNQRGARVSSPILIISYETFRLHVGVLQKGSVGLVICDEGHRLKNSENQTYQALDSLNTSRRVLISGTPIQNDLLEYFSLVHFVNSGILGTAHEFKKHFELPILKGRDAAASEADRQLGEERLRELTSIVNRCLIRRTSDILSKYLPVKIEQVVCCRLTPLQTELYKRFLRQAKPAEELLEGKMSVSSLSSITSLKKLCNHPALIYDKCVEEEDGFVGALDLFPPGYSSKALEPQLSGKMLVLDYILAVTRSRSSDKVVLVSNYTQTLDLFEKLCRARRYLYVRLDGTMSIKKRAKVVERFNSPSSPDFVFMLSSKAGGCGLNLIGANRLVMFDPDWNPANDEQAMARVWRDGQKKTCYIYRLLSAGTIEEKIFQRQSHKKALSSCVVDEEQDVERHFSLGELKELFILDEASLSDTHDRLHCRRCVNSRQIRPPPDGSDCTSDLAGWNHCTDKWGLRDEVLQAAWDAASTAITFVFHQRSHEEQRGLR
- RUN DESCRIPTION: RAD54 Holliday junction migration blockers – biochemical, fluorescence, cherry-picked samples, dose series, confirmation (AID 651657)
- Format: functional
Where a name gives a salt, the structure may show the parent alone. The source made the active and inactive calls.
Hello, when you answer, please use one of the following outcomes: active, inactive

These recorded examples may help you get a feel for the data.
MOLECULE	LABEL CLASS
Nc1c2ccccc2nc2ccccc12 [AMINACRINE HYDROCHLORIDE]	active
CCOC(=O)c1cnc2ccc(C)cc2c1NCCN1CCOCC1	active
COc1cc2ccccc2cc1C(=O)N(CCN(C)C)c1nc2c(OC)ccc(OC)c2s1	inactive

Note: attention shifts to another entry.
**Query** I'd appreciate the recorded outcome for COc1cccc(-c2nc(NCCN3CCOCC3)c3ccccc3n2)c1O from this test.
**Result** active
